# TEST PROTOCOL: HUVEC growth inhibition – cell-based, human, primary screen (AID 575);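 note: 100% = median of untreated cell wells with 0.1% DMSO on each plate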
# APPLIED CONDITIONS: HUVEC proliferation, CellTiter-Glo luminescence, 72 h; at 10 µM; stronger effect = lower value
Item-by-item account of viability
Form entry: value (%) — number only.

Worked cases, answers included:
> print(dat)
                                   molecule  quantitative.readout
1                  CCc1ccccc1N=C1SCC(=O)N1C                  87.9
2  Cc1onc(-c2ccccc2)c1C(=O)Nc1ccnn1C1CCCCC1                  91.3

// moving on: another record for viability
Query: Please give the measured viability for this molecule: O=C(NCC1CCCO1)C1c2ccccc2C(=O)N1C1CCCCCC1 (stereo not drawn)
Response: 88.9

* * *

Item-by-item account of inhibition
# TEST PROTOCOL: 384-well plate pilot, post-Golgi transport modulator project, inhibition of yeast transport mutant growth (AID 636)
# APPLIED CONDITIONS: absorbance 615 nm, about 18 h, stronger effect = higher value
Form entry: value (%) — number only.

Worked cases, answers included:
> print(dat)
                                   compound  quantitative.readout
1         CCOCC(=O)Nc1sc2c(c1C(=O)OCC)CCCC2                  0.13
2            Nc1ncnc2nc(SCCN3CCCCC3)[nH]c12                  3.29
3          CC(C)(C)NC(=O)Cn1nnc(-c2cccs2)n1                 -3.87
4  CCN1CCN(CCCNC(=O)c2cn(CCOC)c(=O)c3c2c2ccccc2n3C)CC1                 -2.11
5  c1ccc2c(c1)CC(N1CCCCC1)c1ccccc1N2 (stereo unspecified)                 -1.82

Query: Please give the measured inhibition for this compound: `CC(C)Cn1c(CN(Cc2ccccc2)Cc2ccccc2)nc2c1c(=O)n(C)c(=O)n2C`
Response: -1.47

Query: Please give the measured inhibition for this compound: `COCCCNC(=O)CCc1nc(-c2ccccc2Cl)no1`
Response: 0.39

Query: Please give the measured inhibition for this compound: `O=C(c1ccccc1)c1coc2ccc(O)c(CN3CCOCC3)c12`
Response: -3.42

Query: Please give the measured inhibition for this compound: Cc1cc(C)c2[nH]c(=O)c(C(c3nnnn3Cc3ccc4c(c3)OCO4)N3CCC(C)CC3)cc2c1 (stereo unspecified)
Response: -4.67

Query: Please give the measured inhibition for this compound: `Cn1c(SCC(=O)N2CCN(c3cccc(Cl)c3)CC2)nnc1-c1ccncc1`
Response: 3.59

Query: Please give the measured inhibition for this compound: `O=C(NCc1ccccc1)C1CCN(S(=O)(=O)N2CCCCCC2)CC1`
Response: 6.49

* * *

# TEST PROTOCOL: HUVEC growth inhibition – cell-based, human, primary screen (AID 575);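 note: 100% = median of untreated cell wells with 0.1% DMSO on each plate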
# APPLIED CONDITIONS: HUVEC proliferation, CellTiter-Glo luminescence, 72 h; at 10 µM; stronger effect = lower value
PROPERTY: viability (%)
Form entry: value (%) — number only.

> print(dat)
                                   compound  quantitative.readout
1       CN(c1ccccc1C(N)=O)S(=O)(=O)c1ccccc1                   101
2  CCCCN(CC)CCCNC(=O)CS(=O)(=O)Cc1nc(-c2cccc(OC)c2)oc1C                  80.1

Query: Please give the measured viability for this compound: [N-]=[N+]=CC(=O)CC(c1ccccc1)N1C(=O)c2ccccc2C1=O (stereo unspecified)
Response: 97.8

Query: Please give the measured viability for this compound: CC(C)C1C2=C(CC(C)(C)CC2=O)ON1c1ccccc1 (stereo unspecified)
Response: 95.8

Query: Please give the measured viability for this compound: `COc1ccc(OCCOC(=O)c2cccs2)cc1`
Response: 111

Query: Please give the measured viability for this compound: `CCN(CC)S(=O)(=O)c1cccc2c(N(C)C)cccc12`
Response: 107

Query: Please give the measured viability for this compound: `O=C(NCCO)c1scc2c1OCCO2`
Response: 91.8

Query: Please give the measured viability for this compound: `CCCCn1nnnc1SCC(=O)Nc1cccc(C)n1`
Response: 111

Query: Please give the measured viability for this compound: `Cc1cc(C)nc(SCC(=O)Nc2ccc(S(=O)(=O)Nc3nccs3)cc2)n1`
Response: 97.4

Query: Please give the measured viability for this compound: `COc1nc(N2CCOCC2)nc(-n2cccc2)n1`
Response: 90.6

Query: Please give the measured viability for this compound: `CCCC(=O)Nc1nnc(Sc2ccc(N(C)C)cc2)s1`
Response: 80.3

Query: Please give the measured viability for this compound: `COc1ccc(Nc2nc(OC)nc(N3CCN(c4ccc(OC)cc4)CC3)n2)cc1`
Response: 66.7

Query: Please give the measured viability for this compound: COc1ccc(-c2cc(C(F)F)n3ncc(C(=O)NCC4CCCO4)c3n2)cc1 (stereo unspecified)
Response: 82.7

Query: Please give the measured viability for this compound: Cc1ccc(NC(=O)CN2CC(C)SC2=NC2CCCCC2)cc1 (stereo unspecified)
Response: 96

Query: Please give the measured viability for this compound: `Cc1nc2nc(SCC(=O)NCc3ccco3)nn2c(C)c1Cc1ccccc1`
Response: 97.3

Query: Please give the measured viability for this compound: `CC(C)OC(=O)CN1C(=O)C(C)(C)Oc2ccc(C(=O)NC3CC3)cc21`
Response: 93.1

Query: Please give the measured viability for this compound: `COc1cc(NC(=O)Cc2cccs2)ccc1-n1cnnn1`
Response: 97

Query: Please give the measured viability for this compound: `Cc1ccc(NC(=O)CSc2nnc(Cc3cccn3C)n2-c2ccc(F)cc2)cc1`
Response: 84

* * *

# TEST PROTOCOL: reversal of MRP1-mediated doxorubicin resistance, pilot screen, H69AR cells, doxorubicin co-treatment (AID 601)
# APPLIED CONDITIONS: H69AR cells + 2 uM doxorubicin, CellTiter-Glo, 72 h; measured here: viability with 2 uM doxorubicin; at 10 µM; stronger effect = lower value
With a cut-off of 90%, any viability strictly below it is called Fulfilled; any viability meeting it or above is called Not fulfilled.

Worked set:
> print(dat)
                                   compound  class.label
1               COCc1cc(C)c2c(N)c(C#N)sc2n1    Fulfilled
2  Cc1ccc(F)cc1NC(=O)Cc1nn(C)c(=O)c2ccccc12    Fulfilled
3  CCN(CC)C(=O)CSc1nc2ccc(NC(=O)CSc3nccn3C)cc2s1    Fulfilled
4            CCOC(=O)CNS(=O)(=O)c1c(C)noc1C    Fulfilled
5  COc1cccc(Cn2c(Oc3ccccc3)nc3c2c(=O)n(C)c(=O)n3C)c1    Fulfilled
6  COc1ccc(C2CC(c3ccccc3)Nc3nc(NC(=O)c4cccs4)nn32)cc1 (stereo not drawn)    Fulfilled
7  O=C(c1cccc(C(=O)N2CCN(c3ccccc3)CC2)c1)N1CCN(c2ccccc2)CC1    Fulfilled
8    COCCn1c(C23CC4CC(CC(C4)C2)C3)n[nH]c1=S    Fulfilled

Query: Check if viability falls below 90% for `CN1CC(=O)N(CC(=O)NCCc2ccc(F)cc2)c2ccccc2C1=O` .
Response: Not fulfilled

Query: Check if viability falls below 90% for `CCOc1ccccc1Nc1ncnc2ccccc12` .
Response: Fulfilled

Query: Check if viability falls below 90% for `Cn1c(SCC(N)=O)nnc1C1CCN(S(=O)(=O)c2ccccc2C(F)(F)F)CC1` .
Response: Not fulfilled

Query: Check if viability falls below 90% for `Nn1c(CSc2nc3ccccc3o2)nnc1CSc1nc2ccccc2o1` .
Response: Fulfilled

Query: Check if viability falls below 90% for `COc1ccccc1OCCn1c(=O)sc2ccccc21` .
Response: Not fulfilled

Query: Check if viability falls below 90% for `COc1ccc(C(=O)Nc2ccc(S(=O)(=O)NC(C)=O)cc2)cc1` .
Response: Not fulfilled

Query: Check if viability falls below 90% for `Nc1ccc(-c2ccc(N)cc2C(F)(F)F)c(C(F)(F)F)c1` .
Response: Fulfilled

* * *

Item-by-item account of viability
# TEST PROTOCOL: reversal of MRP1-mediated doxorubicin resistance, pilot screen, H69AR cells, doxorubicin co-treatment (AID 601)
# APPLIED CONDITIONS: H69AR cells, CellTiter-Glo, 72 h; compound alone cytotoxicity; at 10 µM
Form entry: value (%) — number only.

Worked cases, answers included:
> print(dat)
                                   compound  units.of.measure  quantitative.readout
1  COC(=O)C(CC(C)C)NC(=O)CSc1nc(-c2ccccc2)c(C#N)c(=O)[nH]1 (centres undefined)                 %                   108
2          O=S(=O)(NCc1cccnc1)c1cccc2nsnc12                 %                  92.3
3          CCOc1cc(C)c(Cl)cc1S(=O)(=O)N(C)C                 %                  95.4
4  O=S(=O)(c1ccc2nc(Cc3cccc(C(F)(F)F)c3)[nH]c2c1)N1CCOCC1                 %                  82.9
5      Clc1ccc(Cc2nn3c(-c4ccncc4)nnc3s2)cc1                 %                  96.9
6  CCOc1ccccc1NC(=O)N1CCCC1C(=O)Nc1nnc(CC)s1 (centres undefined)                 %                   109
7  COCCn1c(SCC(=O)N(C(C)C)C(C)C)nnc1-c1cc2ccccc2cc1O                 %                  88.3
8   O=C(CSc1ncc(-c2ccc(F)cc2)[nH]1)N1CCCCC1                 %                  91.3

Query: Please give the measured viability for this compound: `Cc1ccccc1C(=O)NC1CCN(CC(=O)Nc2nccs2)CC1`
Response: 97.8

Query: Please give the measured viability for this compound: `CCCn1c(SCC(=O)N2CCc3ccccc3C2)nc2c1c(=O)n(C)c(=O)n2C`
Response: 84.9

Query: Please give the measured viability for this compound: `COc1cccc(N2CCN(CC(=O)Nc3nnc(-c4ccccc4)s3)CC2)c1`
Response: 83.5

Query: Please give the measured viability for this compound: Cc1ccc(/C(O)=C2/C(=O)C(=O)N(Cc3ccco3)C2c2cccs2)cc1 (centres undefined)
Response: 67.6

Query: Please give the measured viability for this compound: `CCOc1ccc2cc(C#N)c(SCC(=O)N3CCOCC3)nc2c1`
Response: 74.6
